Tested on: E. faecalis PCM 2673 biofilm
Type: cell-based, Enterococcus faecalis
Measurement conditions: 24 h
Where a SMILES comes first, the peptide text is derived from it.

| Compound | MBEC, E. faecalis PCM 2673 |
| --- | --- |
| CC[C@H](C)[C@H](NC(=O)[C@H](C)NC(=O)[C@H](CCCCN)NC(=O)[C@@H](NC(=O)[C@@H](NC(=O)[C@H](CC(=O)O)NC(=O)[C@H](Cc1ccccc1)NC(=O)[C@H](CC(C)C)NC(=O)CN)[C@@H](C)CC)[C@@H](C)CC)C(=O)N[C@@H](C)C(=O)N[C@@H](CCC(=O)O)C(=O)N[C@@H](CO)C(=O)N[C@@H](Cc1ccccc1)C(N)=O [Peptide K8A] (H-GLFDIIKAIAESF-NH2) | > 512 µg/mL |
| CC[C@H](C)[C@H](NC(=O)[C@H](CCCCN)NC(=O)[C@H](C)NC(=O)[C@@H](NC(=O)[C@@H](NC(=O)[C@H](CC(=O)O)NC(=O)[C@H](Cc1ccccc1)NC(=O)[C@H](CC(C)C)NC(=O)CN)[C@@H](C)CC)[C@@H](C)CC)C(=O)N[C@@H](C)C(=O)N[C@@H](CCC(=O)O)C(=O)N[C@@H](CO)C(=O)N[C@@H](Cc1ccccc1)C(N)=O [Peptide K7A] (H-GLFDIIAKIAESF-NH2) | > 512 µg/mL |

====

System: E. coli ATCC 25922
Assay type: cell-based, Escherichia coli
Measurement conditions: ATCC 25922, 18 h
Where a SMILES comes first, the peptide text is derived from it.
Readout type: MIC, E. coli ATCC 25922 (µg/mL)

| Compound | Unit of measure | Value reported |
| --- | --- | --- |
| CC[C@H](C)[C@H](NC(=O)[C@H](CCCCN)NC(=O)[C@H](CCCCN)NC(=O)[C@@H](NC(=O)[C@@H](NC(=O)[C@H](CC(=O)O)NC(=O)[C@H](Cc1ccccc1)NC(=O)[C@H](CC(C)C)NC(=O)CN)[C@@H](C)CC)[C@@H](C)CC)C(=O)N[C@@H](C)C(=O)N[C@@H](CCC(=O)O)C(=O)N[C@@H](C)C(=O)N[C@@H](Cc1ccccc1)C(N)=O [Peptide S12A] (H-GLFDIIKKIAEAF-NH2) | µg/mL | 64 |
| CC[C@H](C)[C@H](NC(=O)[C@H](CCCCN)NC(=O)[C@H](CCCCN)NC(=O)[C@@H](NC(=O)[C@@H](NC(=O)[C@H](CC(=O)O)NC(=O)[C@H](Cc1ccccc1)NC(=O)[C@H](CC(C)C)NC(=O)CN)[C@@H](C)CC)[C@@H](C)CC)C(=O)N[C@@H](C)C(=O)N[C@@H](C)C(=O)N[C@@H](CO)C(=O)N[C@@H](Cc1ccccc1)C(N)=O [Peptide E11A] (H-GLFDIIKKIAASF-NH2) | µg/mL | 16 |
| CC[C@H](C)[C@H](NC(=O)[C@H](CCCCN)NC(=O)[C@H](CCCCN)NC(=O)[C@@H](NC(=O)[C@@H](NC(=O)[C@H](CC(=O)O)NC(=O)[C@H](Cc1ccccc1)NC(=O)[C@H](CC(C)C)NC(=O)CN)[C@@H](C)CC)[C@@H](C)CC)C(=O)N[C@@H](C)C(=O)N[C@@H](CCC(=O)O)C(=O)N[C@@H](CO)C(=O)N[C@@H](Cc1ccccc1)C(N)=O [aurein 1.2] (H-GLFDIIKKIAESF-NH2) | µg/mL | 64 |
| CC[C@H](C)[C@H](NC(=O)[C@H](CCCCN)NC(=O)[C@H](CCCCN)NC(=O)[C@@H](NC(=O)[C@@H](NC(=O)[C@H](CC(=O)O)NC(=O)[C@H](Cc1ccccc1)NC(=O)[C@H](CC(C)C)NC(=O)[C@H](C)N)[C@@H](C)CC)[C@@H](C)CC)C(=O)N[C@@H](C)C(=O)N[C@@H](CCC(=O)O)C(=O)N[C@@H](CO)C(=O)N[C@@H](Cc1ccccc1)C(N)=O [Peptide G1A] (H-ALFDIIKKIAESF-NH2) | µg/mL | 128 |
| CC[C@H](C)[C@H](NC(=O)[C@H](CCCCN)NC(=O)[C@H](CCCCN)NC(=O)[C@@H](NC(=O)[C@@H](NC(=O)[C@H](CC(=O)O)NC(=O)[C@H](Cc1ccccc1)NC(=O)[C@H](CC(C)C)NC(=O)CN)[C@@H](C)CC)[C@@H](C)CC)C(=O)N[C@@H](C)C(=O)N[C@@H](CCC(=O)O)C(=O)N[C@@H](CO)C(=O)N[C@@H](C)C(N)=O [Peptide F13A] (H-GLFDIIKKIAESA-NH2) | µg/mL | 128 |
